assay: NCI Yeast Anticancer Drug Screen. Data for the cln2 rad14 strain (AID 165);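 note: 0% = growth equal to vehicle treated cultures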; conditions: S. cerevisiae cln2 rad14 strain, at 50.0 µM, active compounds read high
This is part of a sample that, as a whole, favours compounds with a hit. Of some 79,000 tested, about 15% had one in any assay.
quantity: growth inhibition (%)
State just the number; it will be interpreted in %.

stdin: For the compound CCCC[As](=O)(O)C(C)C , give its reported growth inhibition.
stdout: 16

stdin: For the compound CN1CCN(c2ccc3nc(-c4ccc5nc(CCCc6ccc(N(CCCl)CCCl)cc6)[nH]c5c4)[nH]c3c2)CC1 , give its reported growth inhibition.
stdout: 91

stdin: For the compound O=[N+]([O-])c1ccc(CS(=O)(=O)C(Cl)Cl)o1 , give its reported growth inhibition.
stdout: 78.8

stdin: For the compound CCCCCCC1C(=O)NC(=O)NC1=O , give its reported growth inhibition.
stdout: -7.75

stdin: For the compound CCNC(=O)CCl , give its reported growth inhibition.
stdout: -2

stdin: For the compound c1ccc([As]2[As](c3ccccc3)[As](c3ccccc3)[As]2c2ccccc2)cc1 (stereo unspecified) , give its reported growth inhibition.
stdout: 98.1

====

assay: NCI Yeast Anticancer Drug Screen. Data for the bub3 strain (AID 167); conditions: S. cerevisiae bub3 mutant strain, at 50.0 µM (retest, dose inferred, filed as 5.0)
The panel holds about 79,000 compounds, 15% with a hit somewhere; the sample as a whole holds those more often. Calls of active or inactive are those of the source. Cut-off read from the data, not from the text of the source: active = growth inhibition above about 70%; inactive = the rest.
Hi there, use one of these labels in your reply, thanks! label 1 = active, label 0 = inactive

stdin: # outcome recorded in this test, key = COCC(C#N)NC1CC(OC2CC(O)(C(=O)CO)Cc3c(O)c4c(c(O)c32)C(=O)c2c(OC)cccc2C4=O)OC(C)C1O (stereo not given)
stdout: label 1

stdin: # outcome recorded in this test, key = O=C1c2ccccc2C[CH]1[Hg][Cl] (stereo not given)
stdout: label 1

stdin: # outcome recorded in this test, key = CC1=C2C(=CC(C)(C)[C@@H]2O)C(=O)[C@](C)(O)C12CC2
stdout: label 0

stdin: # outcome recorded in this test, key = O=C1C(C(Nc2ccccc2)c2ccccc2)=C([O-])c2ccccc21.O=C1C(C(Nc2ccccc2)c2ccccc2)=C([O-])c2ccccc21.[Ni+2] (stereo not given)
stdout: label 1

stdin: # outcome recorded in this test, key = O=[N+]([O-])/C=C/c1cccc(F)c1
stdout: label 1

stdin: # outcome recorded in this test, key = CC1=CC(=O)c2c(O)cccc2C1=O
stdout: label 1

stdin: # outcome recorded in this test, key = C[C@@H]1C[C@@H]([C@H](O)CC2CC(=O)NC(=O)C2)C(=O)[C@@H](C)C1
stdout: label 1

stdin: # outcome recorded in this test, key = CCCCCCCNC(=O)CI
stdout: label 1

stdin: # outcome recorded in this test, key = NC(=O)Nc1ccc([As](Sc2ccccc2C(=O)O)Sc2ccccc2C(=O)O)cc1
stdout: label 0

stdin: # outcome recorded in this test, key = O=[N+]([O-])c1ccc(C2C3CC4C(OOC42)C3I)cc1 (stereo not given)
stdout: label 1

====

assay: NCI Yeast Anticancer Drug Screen. Data for the sgs1 mgt1 strain (AID 161);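 note: 0% = growth of cultures given vehicle only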; conditions: S. cerevisiae sgs1 mgt1 strain, at 50.0 µM, active compounds read high
About 79,000 compounds went through this panel and 15% of them were active in at least one assay; those are over-represented in the sample as a whole.
quantity: growth inhibition (%)
State just the number; it will be interpreted in %.

stdin: For the compound C/C(CC(=O)Nc1ccc([N+](=O)[O-])cc1)=N\Nc1ccc([N+](=O)[O-])cc1[N+](=O)[O-] , give its reported growth inhibition.
stdout: 7.6

stdin: For the compound Nc1ccc(C(=O)Nc2ccc([As](=O)(O)O)cc2)cc1 , give its reported growth inhibition.
stdout: 7.8

stdin: For the compound [Cl][Hg][c]1ccco1 , give its reported growth inhibition.
stdout: 99.7

stdin: For the compound CCn1/c(=N\N=O)sc2ccccc21 , give its reported growth inhibition.
stdout: -4.2

stdin: For the compound C=CC(=O)NCO , give its reported growth inhibition.
stdout: -1.4

stdin: For the compound COc1cc(C2c3[nH]c4ccccc4c3[C@@H](Nc3ccc(C#N)cc3)[C@H]3COC(=O)N23)cc(OC)c1O (stereo partly specified) , give its reported growth inhibition.
stdout: 58.8

stdin: For the compound COc1ccc2[nH]cc(CCN)c2c1 , give its reported growth inhibition.
stdout: -13.5

stdin: For the compound c1cc(CCN2CCCCC2)ccn1 , give its reported growth inhibition.
stdout: -26.5

stdin: For the compound O=[N+]([O-])c1ccc(/C=C/c2ccc(Cl)c(S(=O)(=O)F)c2)c(Cl)c1 , give its reported growth inhibition.
stdout: -1.7

stdin: For the compound O=[N+]([O-])c1cc(Cl)ccc1O , give its reported growth inhibition.
stdout: -6.5

stdin: For the compound C1CCNCC1.O=C([CH-]C(=O)C(F)(F)F)c1ccc2c(c1)C(=O)c1ccccc1-2.O=C([CH-]C(=O)C(F)(F)F)c1ccc2c(c1)C(=O)c1ccccc1-2.O=C([CH-]C(=O)C(F)(F)F)c1ccc2c(c1)C(=O)c1ccccc1-2.O=C([CH-]C(=O)C(F)(F)F)c1ccc2c(c1)C(=O)c1ccccc1-2.[Eu+3] , give its reported growth inhibition.
stdout: 52.2

stdin: For the compound C=CCc1c[nH]c(=S)[nH]c1=O.[Hg] , give its reported growth inhibition.
stdout: 98.8

stdin: For the compound CCOC(CBr)OCC , give its reported growth inhibition.
stdout: 0.45

stdin: For the compound COc1cc(/C=C\[N+](=O)[O-])ccc1O , give its reported growth inhibition.
stdout: 99.5

stdin: For the compound COc1cc(CC(N)Cc2c[nH]c3ccccc23)cc(OC)c1OC (stereo unspecified) , give its reported growth inhibition.
stdout: -4.85

stdin: For the compound [C-]#[O+].[C-]#[O+].[C-]#[O+].[Mo].c1ccc([PH+](CC[As](c2ccccc2)c2ccccc2)CC[As](c2ccccc2)c2ccccc2)cc1 , give its reported growth inhibition.
stdout: 21.1

stdin: For the compound C[CH2][Sn]([CH2]C)([n]1c(C)nc2ccccc21)[n]1c(C)nc2ccccc21 , give its reported growth inhibition.
stdout: -19.3

stdin: For the compound O=C1NC(=O)C(c2ccsc2)C(=O)N1 , give its reported growth inhibition.
stdout: -30.4

stdin: For the compound CCOc1c(Br)cc(N=Cc2ccc(N(CCCl)CCCl)c(OC)c2)cc1Br , give its reported growth inhibition.
stdout: 76.2

stdin: For the compound CC(=O)c1ccc(-c2ccccc2)cc1 , give its reported growth inhibition.
stdout: 8.45

stdin: For the compound O=C(O)c1ccc([Se][Se]c2ccc(C(=O)O)cc2)cc1 , give its reported growth inhibition.
stdout: 93.3
